# TESTED_SYSTEM: HRH2 (Homo sapiens, UniProt P25021)
# Sequence (P25021 whole entry): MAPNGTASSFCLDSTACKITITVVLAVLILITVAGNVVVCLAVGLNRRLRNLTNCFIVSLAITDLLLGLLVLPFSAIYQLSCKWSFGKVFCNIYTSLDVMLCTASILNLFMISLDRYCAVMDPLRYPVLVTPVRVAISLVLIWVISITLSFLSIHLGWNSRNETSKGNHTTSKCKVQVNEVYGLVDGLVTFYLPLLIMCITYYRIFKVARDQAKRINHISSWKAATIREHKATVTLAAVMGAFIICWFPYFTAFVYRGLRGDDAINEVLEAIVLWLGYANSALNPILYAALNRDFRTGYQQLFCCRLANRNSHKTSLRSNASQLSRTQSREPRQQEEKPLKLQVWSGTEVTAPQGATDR
# PROCEDURE_DETAILS: H2 blockade assay: cAMP assay, antagonist mode (agonist challenge at EC80)
# TEST_SETTINGS: dose-response / concentration dependent assay
MEASUREMENT_TYPE: pIC50
Note: pIC50 values are expressed as the negative base-10 logarithm of concentration in M.

Report pIC50 for C=C(C)[C@@H]1CCC(C)=C[C@H]1c1c(O)cc(CCCCC)cc1O please.
5.82
